Recorded melting point, one value per entry.

| compound | melting point |
| --- | --- |
| CN(C)S(=O)(=O)NCC1COc2ccccc2O1 (centres unmarked) | 76 to 78 °C |
| NS(=O)(=O)NCC1CCc2ccccc2O1 (centres unmarked) [ID No. 10, Chroman-2-ylmethylsulfamide] | 100 to 101 °C |
| NS(=O)(=O)NC[C@H]1COc2cc(Cl)c(Cl)cc2O1 | 119 to 121 °C |
| CN(CC1COc2ccccc2O1)S(N)(=O)=O (centres unmarked) | 97 to 98 °C |
| NS(=O)(=O)OC[C@H]1COc2cc(Cl)ccc2O1 (stereo in doubt) | 113 to 116 °C |

src = patent US8084490B2
